# Tested on: EKO-35 acrBD408A
# Format: cell-based, Escherichia coli
# Conditions: strain EKO-35 acrBD408A; NMP + antibiotic
Below, each of the compounds is paired with its reported FICI value.
Response field accepts a number only; no unit should be typed.

Look over these answered cases.
1) CC(=O)O[C@H]1C[C@@]2(C)[C@@H](C[C@@H](O)[C@H]3[C@@]4(C)CC[C@@H](O)[C@@H](C)[C@@H]4CC[C@@]32C)/C1=C(\CCC=C(C)C)C(=O)O [fusidic acid] | 0.500
2) CC[n+]1c(-c2ccccc2)c2cc(N)ccc2c2ccc(N)cc21 [ethidium bromide] | 0.750
3) CC(=O)NC[C@H]1CN(c2ccc(N3CCOCC3)c(F)c2)C(=O)O1 [linezolid] | 0.516
4) CC[C@H]1OC(=O)[C@H](C)[C@@H](O[C@H]2C[C@@](C)(OC)[C@@H](O)[C@H](C)O2)[C@H](C)[C@@H](O[C@@H]2O[C@H](C)C[C@H](N(C)C)[C@H]2O)[C@](C)(O)C[C@@H](C)C(=O)[C@H](C)[C@@H](O)[C@]1(C)O [erythromycin] | 0.500

Lab note: next compound to report on.
What is its FICI for EKO-35 acrBD408A? Entry: Cc1onc(-c2ccccc2)c1C(=O)N[C@@H]1C(=O)N2[C@@H]1SC(C)(C)[C@@H]2C(=O)O [oxacillin]
2.000
